assay: self-splicing fitness, log relative to wild type (ln ratio); higher = more splicing; Tetrahymena group I intron in knt gene, E. coli kanamycin selection, DiMSum; sequences stand for … in CUCUCU…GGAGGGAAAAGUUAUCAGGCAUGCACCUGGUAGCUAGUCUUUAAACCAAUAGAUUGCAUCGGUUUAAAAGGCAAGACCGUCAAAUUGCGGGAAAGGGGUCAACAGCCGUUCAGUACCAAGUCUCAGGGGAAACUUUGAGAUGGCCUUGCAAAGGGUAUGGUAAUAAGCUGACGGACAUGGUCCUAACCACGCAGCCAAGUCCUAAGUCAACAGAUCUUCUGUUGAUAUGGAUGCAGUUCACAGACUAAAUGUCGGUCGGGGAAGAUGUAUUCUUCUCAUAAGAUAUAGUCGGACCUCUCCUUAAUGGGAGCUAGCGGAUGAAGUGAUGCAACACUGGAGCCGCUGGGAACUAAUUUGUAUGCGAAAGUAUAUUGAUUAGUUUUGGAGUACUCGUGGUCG; details: 37 °C;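 note: selection with 25 µg/mL kanamycin versus none on LB agar overnight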
Attribute: self-splicing fitness (ln)
Property name: self-splicing fitness (ln)

Biopolymer sequence: UUUGAGCAAUAUUACGACUA
Property name: self-splicing fitness (ln)
Reported result: -1.32
--
Biopolymer sequence: ACUAAGCAAUAUUACGCCUG
Property name: self-splicing fitness (ln)
Reported result: -0.595
--
Biopolymer sequence: CCAUAGCAAUAUUACGAUCU
Property name: self-splicing fitness (ln)
Reported result: -2.96
--
Biopolymer sequence: UGCUAGCAAUAUUACGGACG
Property name: self-splicing fitness (ln)
Reported result: 0.414
--
Biopolymer sequence: CAUUAGCAAUAUUACGGCGA
Property name: self-splicing fitness (ln)
Reported result: -3.32
--
Biopolymer sequence: CAGCAGCAAUAUUACGACUU
Property name: self-splicing fitness (ln)
Reported result: 0.69
--
Biopolymer sequence: CCCUAGCAAUAUUACGAGCU
Property name: self-splicing fitness (ln)
Reported result: -1.87
--
Biopolymer sequence: AUCAAGCAAUAUUACGAACU
Property name: self-splicing fitness (ln)
Reported result: 0.0259
--
Biopolymer sequence: CGCAAGCAAUAUUACGAUGG
Property name: self-splicing fitness (ln)
Reported result: -0.239
--
Biopolymer sequence: CCAGAGCAAUAUUACGGGUA
Property name: self-splicing fitness (ln)
Reported result: -2.3
--
Biopolymer sequence: GUAGAGCAAUAUUACGGAAA
Property name: self-splicing fitness (ln)
Reported result: -2.18
--
Biopolymer sequence: GUUCAGCAAUAUUACGGUGU
Property name: self-splicing fitness (ln)
Reported result: 0.262
--
Biopolymer sequence: CCCGAGCAAUAUUACGGGCC
Property name: self-splicing fitness (ln)
Reported result: -2.26
--
Biopolymer sequence: GUAUAGCAAUAUUACGCAUG
Property name: self-splicing fitness (ln)
Reported result: -1.01
--
Biopolymer sequence: UUACAGCAAUAUUACGACUA
Property name: self-splicing fitness (ln)
Reported result: 0.256
--
Biopolymer sequence: UUUGAGCAAUAUUACGUGCU
Property name: self-splicing fitness (ln)
Reported result: -2.84
